Recorded values, source ChEMBL document CHEMBL1201862.

System: T47D
assay-details: NCI tumour cell line growth inhibition, 48 h
Active and inactive are the calls of the source. Cut-off read from the data, not from the text of the source: active = GI50 up to about 1.1 µM and inactive = higher.
outcome-measure: GI50

INSERT INTO assay_data (compound, endpoint_result) VALUES
  ('CC1(C)CCCCCCCCCC(C)(CCCCCCCCCCCCO)C1=O (centres undefined)', '16.8 µM (inactive)'),
  ('NS(=O)(=O)c1ccc(NS(=O)(=O)c2ccc(NC(=O)N(c3ccccc3)c3ccccc3)cc2)cc1', '48 µM (inactive)'),
  ('CC1=C(N2CC2)C(=O)C(C)=C(N2CC2)C1=O', '0.208 µM (active)');

Attention now turns to another entry.
// fetch T47D GI50 for CCOc1ccc(/N=N/C2C(=O)N(C(=O)CC(=O)Nc3ccc(Cl)cc3)N=C2C)cc1 (centres undefined)
> 100 µM (inactive)
